system: 415267-285-R-J2-PDC complex spheroid viability; assay: Anticancer human tumor 415267-285-R-J2-PDC patient-derived breast carcinoma cell line growth inhibition [POLQ]; settings: second compound 1 µM; first compound 0.316 µM; active = viability on the fitted dose curve at most 10% of control; inactive = the rest
Write down the outcome that applies. Available outcomes: T for active, F for inactive

Per the records of this test, what outcome belongs to COc1cccc(OCCCN)c1-c1cc(Nc2cnc(C#N)cn2)n[nH]1 + Cc1cccc(N(C)C(=O)C2C(O)CCN2c2nc(C)cc(C(F)(F)F)c2C#N)c1 ?
T

* * *

system: 415267-285-R-J2-PDC complex spheroid viability; assay: Anticancer human tumor 415267-285-R-J2-PDC cell line growth inhibition [POLQ]; conditions: curve of first compound; second compound 0.0316 µM;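 also: spheroids exposed to compounds for one week before readout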
Recorded IC50 by entry

Some solved cases for reference:
# MOLECULE, IC50
records = [
    ("CC(=O)O[C@H]1C(=O)[C@@]2(C)[C@H]([C@H](OC(=O)c3ccccc3)[C@]3(O)C[C@H](OC(=O)[C@H](O)[C@@H](NC(=O)c4ccccc4)c4ccccc4)C(C)=C1C3(C)C)[C@]1(OC(C)=O)CO[C@@H]1C[C@@H]2O + Nc1ccc(C#CCN(C(=O)Cc2ncc(C(F)(F)F)cc2C(F)(F)F)c2ccc(F)cc2)nn1", "< 0.00949 µM"),
    ("O=C(Nc1ccc(O)c(NS(=O)(=O)c2ccc(F)cc2)c1)c1ccc(-c2ccccc2)cc1 + Cc1cccc(N(C)C(=O)C2C(O)CCN2c2nc(C)cc(C(F)(F)F)c2C#N)c1", "> 10 µM"),
]

In the following, a different molecule is considered.
I am curious: what IC50 value has been reported for CC1COCCN1c1cc(C2(O)CC3CCC(C2)O3)c2cnn(-c3ccn[nH]3)c2n1 (stereo not drawn) + Cc1cccc(N(C)C(=O)C2C(O)CCN2c2nc(C)cc(C(F)(F)F)c2C#N)c1 ?
< 0.0316 µM

src = PubChem BioAssay AID1963847
